Source listed as PubChem BioAssay (NCI).

tested on: UACC-62 melanoma; test: NCI tumour cell line growth inhibition, 48 h
Consider the following molecules and their measured TGI readings.
measured quantity: TGI (µM)

molecule="CCN(CC)CCOc1ccc(NC(=O)C(C(C)C)N2C(=O)/C(=C/c3ccc(Br)cc3)SC2=S)cc1 (stereo unspecified)" measured_quantity=TGI relation_qualifier== numeric_value=3.53
molecule=O=[N+]([O-])c1cc(C(F)(F)F)cc2n[se]nc12 measured_quantity=TGI relation_qualifier== numeric_value=15
molecule=Oc1c(Cl)c(Cl)c(O)c(-c2cnc(-c3ncc(-c4c(O)c(Cl)c(Cl)c(O)c4Cl)s3)s2)c1Cl measured_quantity=TGI relation_qualifier== numeric_value=46.8
molecule=C[n+]1ccc2/c(=C\C#N)c3ccccc3n21 measured_quantity=TGI relation_qualifier=> numeric_value=100
molecule=O=C(O)CCC1(CCC(=O)O)CCCCCCCCC(CCC(=O)O)(CCC(=O)O)C(=O)C1=O measured_quantity=TGI relation_qualifier=> numeric_value=100
molecule=CC(=O)O[C@H]1C(=O)[C@@]2(C)[C@H]([C@H](OC(=O)c3ccccc3)[C@]3(O)C[C@H](OC(=O)[C@H](O)[C@@H](NC(=O)OC(C)(C)C)c4ccco4)C(C)=C1C3(C)C)[C@]1(OC(C)=O)CO[C@@H]1C[C@@H]2O measured_quantity=TGI relation_qualifier=> numeric_value=33.4
molecule=COc1ccc(Cl)cc1Nc1nc(C(F)(F)F)ccc1C(=O)N/N=C/c1ccccc1Cl measured_quantity=TGI relation_qualifier== numeric_value=9.83
molecule=CC(C)c1ccc(C(c2c(O)c3ccccc3oc2=O)c2c(O)c3ccccc3oc2=O)cc1 measured_quantity=TGI relation_qualifier== numeric_value=31.2
molecule=C[N+]1(C)C/C(=C\C=C\c2ccccc2)C(=O)/C(=C/C=C/c2ccccc2)C1 measured_quantity=TGI relation_qualifier== numeric_value=14.2
molecule="CC(C)(CN1CCCCC1)C(=O)CC(SCCS(=O)(=O)O)c1ccccc1 (stereo unspecified)" measured_quantity=TGI relation_qualifier== numeric_value=29.5
molecule=Cc1cnc2c(c1)C(=O)N(c1ccc(Br)cc1)S2(=O)=O measured_quantity=TGI relation_qualifier=> numeric_value=100
molecule=COc1c(-c2ccc(F)cc2)oc2c(CC(=O)O)cccc2c1=O measured_quantity=TGI relation_qualifier=> numeric_value=100
molecule=O=C(O)c1ccc(Nc2nc3ccc(C(F)(F)F)cc3nc2-c2ccccc2)cc1 measured_quantity=TGI relation_qualifier== numeric_value=35.8
molecule=CCOC(=O)c1c(Br)c(-c2ccc([N+](=O)[O-])cc2)c(Br)n1C measured_quantity=TGI relation_qualifier=> numeric_value=10
molecule=CCN(CC)CCNc1ccc(N=Nc2cnc3ccccc3c2)c2ccccc12 measured_quantity=TGI relation_qualifier== numeric_value=3.21
molecule="Cc1ccc(-c2nc3ccccc3c(=O)n2NC2OC(CO)C(O)C(O)C2O)cc1 (stereo unspecified)" measured_quantity=TGI relation_qualifier=> numeric_value=100
molecule="O=C(OCC1CC(C2(O)CCCCC2)C(=O)O1)c1ccccc1 (stereo unspecified)" measured_quantity=TGI relation_qualifier=> numeric_value=100
molecule=CC(C)c1ccc(C(O)(C(=O)O)c2ccc(C(C)C)cc2)cc1 measured_quantity=TGI relation_qualifier=> numeric_value=100
molecule=COc1cc2cnc3c4cc(O)ccc4ccc3c2cc1OC measured_quantity=TGI relation_qualifier=> numeric_value=100
molecule="CN(C)C1(N(C)C)Oc2c(c(=O)n(C)c(=O)n2C)C(c2ccc(F)cc2)C1(F)F (stereo unspecified)" measured_quantity=TGI relation_qualifier=> numeric_value=100
molecule=O=C(/C=C/c1ccc(O)c(O)c1)c1ccc(O)cc1O measured_quantity=TGI relation_qualifier== numeric_value=48.3
